target: T1, mouse DLL4 on cells (mouse, UniProt Q9JI71 27-686); assay: FACS, direct binding to DLL4 cells
T1 construct: whole, on cells; also called mouse DLL4-293G; mu DLL4 cells
T1 sequence (Q9JI71 27-686): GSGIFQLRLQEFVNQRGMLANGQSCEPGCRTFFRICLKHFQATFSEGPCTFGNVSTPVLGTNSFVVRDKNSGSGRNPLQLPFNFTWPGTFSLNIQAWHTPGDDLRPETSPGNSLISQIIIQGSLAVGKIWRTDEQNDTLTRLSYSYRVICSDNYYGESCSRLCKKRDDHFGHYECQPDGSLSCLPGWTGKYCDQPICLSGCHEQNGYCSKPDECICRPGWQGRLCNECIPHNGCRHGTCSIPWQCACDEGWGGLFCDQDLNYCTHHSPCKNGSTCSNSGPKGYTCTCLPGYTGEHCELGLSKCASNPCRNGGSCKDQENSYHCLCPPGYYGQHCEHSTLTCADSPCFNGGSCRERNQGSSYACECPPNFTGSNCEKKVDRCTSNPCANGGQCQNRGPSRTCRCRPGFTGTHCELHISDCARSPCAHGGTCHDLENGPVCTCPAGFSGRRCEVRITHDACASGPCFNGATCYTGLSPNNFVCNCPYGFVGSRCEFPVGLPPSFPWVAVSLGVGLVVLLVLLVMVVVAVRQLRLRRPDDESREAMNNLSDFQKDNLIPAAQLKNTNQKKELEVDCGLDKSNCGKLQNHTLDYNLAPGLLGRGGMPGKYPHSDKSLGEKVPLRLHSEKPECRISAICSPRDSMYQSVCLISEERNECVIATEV
REPORTED_PROPERTY: pEC50
Worth noting: pEC50 values are minus log10 of concentrations stated in mol/L.

Example entries begin here.
h1A11.F5 (antibody, V domains shown, also called h1A11.F5 VH / h1A11.E12 VL) VH: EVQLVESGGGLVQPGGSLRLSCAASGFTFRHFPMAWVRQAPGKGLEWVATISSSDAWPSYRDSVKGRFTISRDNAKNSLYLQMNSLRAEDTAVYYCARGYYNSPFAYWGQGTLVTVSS VL: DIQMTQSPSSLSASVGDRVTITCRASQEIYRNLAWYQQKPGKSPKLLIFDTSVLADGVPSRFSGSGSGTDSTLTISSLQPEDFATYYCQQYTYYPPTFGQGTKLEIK; 9.34
h1A11.A6 (antibody, V domains shown, also called h1A11.A6 VH / h1A11VL.1) VH: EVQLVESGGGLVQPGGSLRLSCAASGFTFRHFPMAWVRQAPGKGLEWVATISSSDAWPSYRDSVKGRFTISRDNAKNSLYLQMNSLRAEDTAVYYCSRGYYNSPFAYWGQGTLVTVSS VL: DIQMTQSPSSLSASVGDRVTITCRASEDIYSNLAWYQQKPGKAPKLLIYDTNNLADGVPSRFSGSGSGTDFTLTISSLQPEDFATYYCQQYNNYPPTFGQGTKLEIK; 9.20
h1A11.H2 (antibody, V domains shown, also called h1A11.H2 VH / h1A11.E12 VL) VH: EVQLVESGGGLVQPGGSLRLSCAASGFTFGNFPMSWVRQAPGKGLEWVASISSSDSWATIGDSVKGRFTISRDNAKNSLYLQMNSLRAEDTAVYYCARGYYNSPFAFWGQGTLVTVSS VL: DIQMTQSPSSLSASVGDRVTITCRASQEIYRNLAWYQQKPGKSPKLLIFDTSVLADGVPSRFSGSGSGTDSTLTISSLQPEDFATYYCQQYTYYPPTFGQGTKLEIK; 9.38
h1A11.E12 (antibody, V domains shown, also called h1A11.E12 VH / h1A11.E12 VL) VH: EVQLVESGGGLVQPGGSLRLSCAASGFTFRYFPMAWVRQAPGKGLEWVATISGSDEWPNYRDSVKGRFTISRDNAKNSLYLQMNSLRAEDTAVYYCARGYYNSPFAFWGQGTLVTVSS VL: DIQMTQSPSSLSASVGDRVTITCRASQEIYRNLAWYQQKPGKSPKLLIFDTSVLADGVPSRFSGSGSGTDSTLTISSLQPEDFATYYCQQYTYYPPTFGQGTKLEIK; 8.79

Attention now shifts to the item below.
The reported value for h1A11.A12 (antibody, V domains shown, also called h1A11VH.1 / h1A11.A12 VL) VH: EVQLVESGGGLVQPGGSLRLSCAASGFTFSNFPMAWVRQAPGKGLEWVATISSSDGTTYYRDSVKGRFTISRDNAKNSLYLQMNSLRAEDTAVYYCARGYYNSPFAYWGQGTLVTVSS VL: DIQMTQSPSSLSASVGDRVTITCRASQDIYYNLAWYQQKPGKSPKLLIFDTSSLADGVPSRFSGSGSGTDFTLTISSLQPEDFATYFCQQYDWYPPTFGQGTKLEIK in terms of pEC50 is 9.25

Every entry's value here was drawn from patent US20110217237A1.
